TARGET OF ASSAY: T1, Human ST2-his (human, UniProt Q01638 19-328)
T1 construct: Expressed in CHO-K1; also called human ST2 fused with a 6-histidine tag at the C-terminus
T1 sequence: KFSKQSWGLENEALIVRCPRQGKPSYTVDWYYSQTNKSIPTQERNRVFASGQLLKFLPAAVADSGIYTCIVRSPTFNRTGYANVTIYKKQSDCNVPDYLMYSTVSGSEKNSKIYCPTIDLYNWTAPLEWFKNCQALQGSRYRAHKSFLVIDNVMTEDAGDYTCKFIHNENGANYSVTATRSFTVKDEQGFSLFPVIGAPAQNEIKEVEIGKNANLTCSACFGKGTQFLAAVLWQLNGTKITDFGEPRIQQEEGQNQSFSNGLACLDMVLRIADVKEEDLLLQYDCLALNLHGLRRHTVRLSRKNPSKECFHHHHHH
ASSAY DETAILS: SPR Biacore X100, antibody on protein A, ST2-his analyte
Procedure: On the basis of the results of the quantitative screenings of murine antibodies above together, 19 murine antibodies were selected for affinity determination and in vitro pharmacological study. […] Each anti-human ST2 antibody was diluted to 10 nM and captured on the surface of a protein A chip (for a capture time of 60 s). […] Association was monitored for 4 min and dissociation for 10 min, and the sensor surface was regenerated by injecting a solution of glycine at pH 2.0. […]
# key: entry, value: koff
Record the value in s⁻¹, omitting the unit from your answer.

These solved cases illustrate the format of a correct answer.
- BINDER: "5888-116H1+L1 (antibody, V domains shown, murine antibody) VH: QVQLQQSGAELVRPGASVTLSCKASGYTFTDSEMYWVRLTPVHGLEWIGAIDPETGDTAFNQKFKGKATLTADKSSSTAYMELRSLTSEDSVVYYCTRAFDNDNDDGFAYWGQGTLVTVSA VL: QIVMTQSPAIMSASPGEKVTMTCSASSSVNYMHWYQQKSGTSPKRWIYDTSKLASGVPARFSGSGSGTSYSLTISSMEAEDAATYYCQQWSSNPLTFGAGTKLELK"
  koff / s⁻¹: 0.00111
- BINDER: "5887-537H3+L1 (antibody, V domains shown, murine antibody; also called 5887-537H3H+L1) VH: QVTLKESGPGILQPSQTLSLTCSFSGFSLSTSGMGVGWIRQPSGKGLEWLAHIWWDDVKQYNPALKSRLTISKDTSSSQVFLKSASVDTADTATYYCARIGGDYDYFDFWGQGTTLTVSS VL: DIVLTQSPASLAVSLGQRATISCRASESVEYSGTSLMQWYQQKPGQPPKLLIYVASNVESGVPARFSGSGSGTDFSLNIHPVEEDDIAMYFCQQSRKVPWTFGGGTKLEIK"
  koff / s⁻¹: 0.00084

Input: Please report the recorded koff for 5888-153H1+L2 (antibody, V domains shown, murine antibody) VH: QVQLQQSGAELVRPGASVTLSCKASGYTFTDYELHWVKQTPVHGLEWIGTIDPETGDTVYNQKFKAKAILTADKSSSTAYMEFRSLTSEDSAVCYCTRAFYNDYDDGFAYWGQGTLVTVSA VL: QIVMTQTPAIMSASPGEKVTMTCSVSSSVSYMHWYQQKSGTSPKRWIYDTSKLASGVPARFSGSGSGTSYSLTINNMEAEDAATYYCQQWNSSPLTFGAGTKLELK .
Output: 0.000864

Input: What do you get for 5888-357H+L (antibody, V domains shown, murine antibody) VH: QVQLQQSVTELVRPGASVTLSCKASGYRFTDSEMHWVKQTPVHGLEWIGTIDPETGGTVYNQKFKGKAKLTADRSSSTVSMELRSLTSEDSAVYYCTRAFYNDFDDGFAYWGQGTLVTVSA VL: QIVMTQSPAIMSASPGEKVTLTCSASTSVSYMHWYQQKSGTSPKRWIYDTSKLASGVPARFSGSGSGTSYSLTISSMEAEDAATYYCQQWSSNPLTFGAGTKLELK ?
Output: 0.0007

Input: Another binder: Control antibody CNTO7160 (antibody, human IgG4 S228P, kappa, V domains shown) VH: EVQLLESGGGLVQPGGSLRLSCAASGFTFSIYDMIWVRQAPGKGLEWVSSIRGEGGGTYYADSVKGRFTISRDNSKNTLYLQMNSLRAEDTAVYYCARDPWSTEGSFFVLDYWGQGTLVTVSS VL: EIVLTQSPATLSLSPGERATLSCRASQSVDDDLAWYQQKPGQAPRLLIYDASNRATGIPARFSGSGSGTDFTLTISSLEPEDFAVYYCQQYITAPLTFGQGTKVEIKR
Output: 0.000539

Input: Next up: 5887-41H+L (antibody, V domains shown, murine antibody) VH: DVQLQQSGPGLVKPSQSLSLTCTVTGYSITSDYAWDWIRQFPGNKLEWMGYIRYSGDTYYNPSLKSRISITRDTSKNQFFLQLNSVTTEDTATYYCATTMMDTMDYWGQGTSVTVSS VL: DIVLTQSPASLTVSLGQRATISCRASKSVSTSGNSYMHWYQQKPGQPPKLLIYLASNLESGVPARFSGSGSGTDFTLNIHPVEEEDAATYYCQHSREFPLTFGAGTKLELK
Output: 0.000613

meta.source: patent US12624112
